Data provenance: ChEMBL document CHEMBL5291721

Glutamate receptor ionotropic, NMDA 1 (Rattus norvegicus) measurements of AC50, listed per entry. Further: assay procedure not described here.

{"columns": ["MOLECULE", "AC50"],
 "data": [
  ["CC1(C)NC(=O)N(c2ccc([N+](=O)[O-])c(C(F)(F)F)c2)C1=O [NILUTAMIDE]", "> 30 µM"],
  ["Nc1nc(NC2CC2)c2ncn([C@H]3C=C[C@@H](CO)C3)c2n1", "> 30 µM"],
  ["Cc1ccc(S(=O)(=O)NC(=O)NN2CC3CCCC3C2)cc1 (stereo unspecified) [GLICLAZIDE]", "> 10 µM"],
  ["CC(C)(C)c1cc(C(C)(C)C)c(NC(=O)c2c[nH]c3ccccc3c2=O)cc1O", "> 10 µM"],
  ["CN(C)CCC=C1c2ccccc2C=Cc2ccccc21", "> 10 µM"],
  ["COc1ccc(CCN(C)CCCC(C#N)(c2cc(OC)c(OC)c(OC)c2)C(C)C)cc1OC (stereo unspecified)", "> 30 µM"],
  ["CC[C@H]1[C@@H](O)[C@@H]2[C@H](CC[C@]3(C)[C@@H]([C@H](C)CCC(=O)O)CC[C@@H]23)[C@@]2(C)CC[C@@H](O)C[C@@H]12", "> 30 µM"],
  ["O=C(O)[C@H](CC(=O)N1C[C@H]2CCCC[C@H]2C1)Cc1ccccc1 [MITIGLINIDE]", "> 10 µM"],
  ["CCOc1ccccc1OCC1CNCCO1 (stereo unspecified)", "> 10 µM"],
  ["C[C@@H]1O[C@@H](O[C@@H]2C=C3CC[C@@H]4[C@H](CC[C@]5(C)[C@@H](c6ccc(=O)oc6)CC[C@]45O)[C@@]3(C)CC2)[C@H](O)[C@H](O)[C@H]1O", "> 30 µM"],
  ["CC/C(=C(\\c1ccccc1)c1ccc(OCCN(C)C)cc1)c1ccccc1", "> 10 µM"],
  ["CCc1c(Cl)c(O)c(Cl)c(O)c1C(=O)O[C@H]1[C@H](O)[C@H](OC)[C@H](OC/C2=C\\C=C\\C[C@H](O)/C(C)=C/[C@H](CC)[C@@H](O[C@@H]3OC(C)(C)[C@@H](OC(=O)C(C)C)[C@H](O)[C@@H]3O)/C(C)=C/C(C)=C/C[C@@H]([C@@H](C)O)OC2=O)O[C@@H]1C", "> 10 µM"],
  ["CC[C@@H](C(N)=O)N1CCCC1=O", "> 30 µM"],
  ["CCC1(CC)C(=O)NCC(C)C1=O (stereo unspecified)", "> 30 µM"],
  ["CC(C)C[C@H]1C(=O)N2CCC[C@H]2[C@]2(O)O[C@](NC(=O)[C@@H]3C=C4c5cccc6[nH]c(Br)c(c56)C[C@H]4N(C)C3)(C(C)C)C(=O)N12", "> 10 µM"],
  ["C#C[C@]1(O)CC[C@H]2[C@@H]3[C@H](C)CC4=C(CCC(=O)C4)[C@H]3CC[C@@]21C", "> 30 µM"],
  ["NS(=O)(=O)Cc1noc2ccccc12 [ZONISAMIDE]", "> 10 µM"],
  ["C#C[C@]1(O)CC[C@H]2[C@@H]3CCc4cc(OC5CCCC5)ccc4[C@H]3CC[C@@]21C", "> 10 µM"],
  ["COc1ccccc1N1CCN(CCCNc2cc(=O)n(C)c(=O)n2C)CC1", "> 30 µM"],
  ["CC(C)(C)C(=O)Oc1ccc(S(=O)(=O)Nc2ccccc2C(=O)NCC(=O)O)cc1", "> 30 µM"],
  ["CCCSc1ccc2nc(NC(=O)OC)[nH]c2c1", "> 10 µM"],
  ["CC(C)=CCC/C(C)=C/C=C/C(C)=C/C=C/C(C)=C/C=C/C=C(C)/C=C/C=C(C)/C=C/C=C(\\C)CCC=C(C)C", "> 30 µM"],
  ["Cc1nnc2n1-c1ccc(Cl)cc1C(c1ccccc1Cl)=NC2", "> 10 µM"],
  ["NC(=O)OCC(COC(N)=O)c1ccccc1 [FELBAMATE]", "> 10 µM"],
  ["C[C@H](CSC(=O)c1ccccc1)C(=O)N1C[C@@H](Sc2ccccc2)C[C@H]1C(=O)O", "> 10 µM"],
  ["CC(Oc1c(Cl)cccc1Cl)C1=NCCN1 (stereo unspecified)", "> 30 µM"],
  ["COc1ccc(CCNCC(O)COc2cccc(C)c2)cc1OC (stereo unspecified)", "> 10 µM"],
  ["CCOc1ccc(Cc2cc([C@@H]3O[C@H](CO)[C@@H](O)[C@H](O)[C@H]3O)ccc2Cl)cc1", "> 10 µM"],
  ["CCCN(CCC)C(=O)C(CCC(=O)O)NC(=O)c1ccccc1 (stereo unspecified) [PROGLUMIDE]", "> 10 µM"],
  ["COC1=C(OC)C(=O)C(C/C=C(\\C)CC/C=C(\\C)CC/C=C(\\C)CC/C=C(\\C)CC/C=C(\\C)CC/C=C(\\C)CC/C=C(\\C)CC/C=C(\\C)CC/C=C(\\C)CCC=C(C)C)=C(C)C1=O", "> 30 µM"],
  ["NCC[C@H](O)C(=O)N[C@@H]1C[C@H](N)[C@@H](O[C@H]2O[C@H](CN)[C@@H](O)[C@H](O)[C@H]2O)[C@H](O)[C@H]1O[C@H]1O[C@H](CO)[C@@H](O)[C@H](N)[C@H]1O", "> 10 µM"]
]}

====

Reported AC50 values for the following molecules.
Biological target: Bile salt export pump (Homo sapiens, UniProt O95342); further: assay procedure not described here
Sequence (O95342 whole entry): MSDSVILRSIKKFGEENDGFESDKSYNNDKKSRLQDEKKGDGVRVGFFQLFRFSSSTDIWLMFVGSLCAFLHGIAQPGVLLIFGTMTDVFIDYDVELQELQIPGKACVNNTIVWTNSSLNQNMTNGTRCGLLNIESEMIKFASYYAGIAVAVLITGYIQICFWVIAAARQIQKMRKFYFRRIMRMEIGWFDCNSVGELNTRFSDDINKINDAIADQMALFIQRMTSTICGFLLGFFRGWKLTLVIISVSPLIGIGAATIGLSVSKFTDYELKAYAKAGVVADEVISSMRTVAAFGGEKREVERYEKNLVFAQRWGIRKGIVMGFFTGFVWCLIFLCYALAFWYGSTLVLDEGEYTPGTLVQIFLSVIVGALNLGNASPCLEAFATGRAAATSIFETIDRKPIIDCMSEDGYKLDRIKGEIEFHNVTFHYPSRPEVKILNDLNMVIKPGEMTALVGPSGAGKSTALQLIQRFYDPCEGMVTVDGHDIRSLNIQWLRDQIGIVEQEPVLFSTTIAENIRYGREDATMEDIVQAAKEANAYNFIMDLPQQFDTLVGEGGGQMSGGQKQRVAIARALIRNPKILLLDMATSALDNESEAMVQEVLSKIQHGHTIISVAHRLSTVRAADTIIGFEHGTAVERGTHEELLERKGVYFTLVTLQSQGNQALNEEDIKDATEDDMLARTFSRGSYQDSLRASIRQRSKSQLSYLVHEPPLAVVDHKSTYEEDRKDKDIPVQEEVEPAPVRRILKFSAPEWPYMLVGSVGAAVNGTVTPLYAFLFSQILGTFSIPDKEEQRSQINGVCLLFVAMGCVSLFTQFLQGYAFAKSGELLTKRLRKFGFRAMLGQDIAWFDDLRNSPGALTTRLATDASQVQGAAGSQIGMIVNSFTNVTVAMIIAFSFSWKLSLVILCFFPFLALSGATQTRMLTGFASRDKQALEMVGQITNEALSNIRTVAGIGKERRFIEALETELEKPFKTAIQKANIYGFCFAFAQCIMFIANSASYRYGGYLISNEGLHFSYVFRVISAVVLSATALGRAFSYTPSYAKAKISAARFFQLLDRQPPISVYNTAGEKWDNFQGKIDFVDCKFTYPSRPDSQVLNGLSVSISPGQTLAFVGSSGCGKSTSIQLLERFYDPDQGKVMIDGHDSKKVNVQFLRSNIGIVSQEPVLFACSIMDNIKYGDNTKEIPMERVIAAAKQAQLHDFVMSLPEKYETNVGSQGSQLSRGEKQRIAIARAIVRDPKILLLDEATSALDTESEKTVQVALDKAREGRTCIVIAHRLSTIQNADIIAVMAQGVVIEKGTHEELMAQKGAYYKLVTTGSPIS
Assay type: functional
MEASURED QUANTITY: AC50

{"columns": ["MOLECULE", "VALUE REPORTED"],
 "data": [
  ["CNC1Cc2ccccc2N(C)c2ccccc21 (stereo not given)", "> 300 µM"],
  ["C=C[C@H]1C[N@@]2CC[C@H]1C[C@H]2[C@H](O)c1ccnc2ccc(OC)cc12", "> 300 µM"],
  ["CNC(=O)c1ccccc1Sc1ccc2c(/C=C/c3ccccn3)n[nH]c2c1", "5.4 µM"],
  ["O=C(O)c1cc(O)ccc1O", "> 300 µM"],
  ["C1CCC(C(CC2CCCCN2)C2CCCCC2)CC1 (stereo not given)", "72 µM"],
  ["CC(C)(C)NC[C@H](O)COc1ccccc1C1CCCC1", "> 300 µM"],
  ["CN(C)CC(c1ccc(O)cc1)C1(O)CCCCC1 (stereo not given)", "> 300 µM"],
  ["Cc1nc([N+](=O)[O-])cn1-c1ccc([N+](=O)[O-])cc1", "> 300 µM"],
  ["OCCN1C[C@H](O)[C@@H](O)[C@H](O)[C@H]1CO", "> 300 µM"],
  ["C[C@H]1CNCCc2ccc(Cl)cc21", "> 300 µM"],
  ["CN1C(=O)CCS(=O)(=O)C1c1ccc(Cl)cc1 (stereo not given)", "> 300 µM"],
  ["NCC(CC(=O)O)c1ccc(Cl)cc1 (stereo not given)", "> 300 µM"],
  ["Nc1ccn([C@H]2CC[C@@H](CO)O2)c(=O)n1", "> 300 µM"],
  ["CN(C)/N=N/c1[nH]cnc1C(N)=O", "> 300 µM"],
  ["N[C@@H]1[C@H]2CN(c3nc4c(cc3F)c(=O)c(C(=O)O)cn4-c3ccc(F)cc3F)C[C@@H]12", "> 300 µM"],
  ["NS(=O)(=O)Cc1noc2ccccc12 [ZONISAMIDE]", "> 300 µM"],
  ["CCCN1C[C@H](CSC)C[C@@H]2c3cccc4[nH]cc(c34)C[C@H]21 [PERGOLIDE]", "> 10 µM"],
  ["CCc1oc2ccccc2c1C(=O)c1cc(I)c(O)c(I)c1", "6.3 µM"],
  ["Cn1nnc2c(C(N)=O)ncn2c1=O [TEMOZOLOMIDE]", "> 300 µM"],
  ["CC1=C(C(=O)O)N2C(=O)[C@@H](NC(=O)[C@H](N)c3ccccc3)[C@H]2SC1 [CEPHALEXIN ANHYDROUS]", "> 300 µM"]
]}

====

Target: UniProtKB P03372
Sequence (P03372 whole entry): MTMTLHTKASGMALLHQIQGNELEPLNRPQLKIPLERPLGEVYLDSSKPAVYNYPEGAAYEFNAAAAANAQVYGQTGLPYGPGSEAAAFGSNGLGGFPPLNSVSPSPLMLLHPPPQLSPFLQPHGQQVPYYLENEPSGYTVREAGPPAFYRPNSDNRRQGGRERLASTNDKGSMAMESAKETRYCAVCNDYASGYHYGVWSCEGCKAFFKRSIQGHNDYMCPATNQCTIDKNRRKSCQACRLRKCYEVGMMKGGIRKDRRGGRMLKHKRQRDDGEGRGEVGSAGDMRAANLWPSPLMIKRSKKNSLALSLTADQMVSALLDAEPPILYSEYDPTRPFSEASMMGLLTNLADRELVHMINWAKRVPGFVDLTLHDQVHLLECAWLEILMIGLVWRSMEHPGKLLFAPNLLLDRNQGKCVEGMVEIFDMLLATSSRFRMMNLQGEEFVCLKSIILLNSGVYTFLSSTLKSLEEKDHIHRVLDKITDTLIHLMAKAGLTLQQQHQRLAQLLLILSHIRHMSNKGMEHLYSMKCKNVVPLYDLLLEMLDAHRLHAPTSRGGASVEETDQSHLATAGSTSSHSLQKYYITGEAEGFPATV

{"columns": ["COMPOUND", "TARGET DESC", "AC50"],
 "data": [
  ["CO/N=C(\\C(=O)N[C@@H]1C(=O)N2C(C(=O)O)=C(CSc3nnnn3C)CS[C@H]12)c1csc(N)n1", "UniProtKB P03372", "> 30 µM"],
  ["CC(C)OC(=O)CCC/C=C\\C[C@@H]1[C@@H](CC[C@@H](O)CCc2ccccc2)[C@H](O)C[C@@H]1O", "UniProtKB P03372", "> 30 µM"],
  ["Cn1nnc2c(C(N)=O)ncn2c1=O [TEMOZOLOMIDE]", "UniProtKB P03372", "> 30 µM"],
  ["C=CCN1C[C@H](C(=O)N(CCCN(C)C)C(=O)NCC)C[C@@H]2c3cccc4[nH]cc(c34)C[C@H]21", "UniProtKB P03372", "> 10 µM"],
  ["CC(C[N+](C)(C)C)OC(N)=O (stereo unspecified)", "UniProtKB P03372", "> 10 µM"],
  ["C[N+]1(C)CCC(OC(=O)C(O)(c2ccccc2)C2CCCC2)C1 (stereo unspecified) [GLYCOPYRRONIUM BROMIDE]", "UniProtKB P03372", "> 30 µM"],
  ["Clc1ccc(CCCOCCCN2CCCCC2)cc1", "UniProtKB P03372", "> 30 µM"],
  ["Fc1ccc(C(c2ccccc2)(c2ccccc2F)n2ccnc2)cc1 (stereo unspecified)", "UniProtKB P03372", "> 30 µM"],
  ["Clc1ccc2nsnc2c1NC1=NCCN1", "UniProtKB P03372", "> 30 µM"],
  ["COc1cc2nc(N3CCN(C(=O)c4ccco4)CC3)nc(N)c2cc1OC", "UniProtKB P03372", "> 30 µM"],
  ["CC=CC(=O)N(CC)c1ccccc1C", "UniProtKB P03372", "> 10 µM"],
  ["CC(CC(c1ccccc1)c1ccccc1)NC(C)(C)C (stereo unspecified)", "UniProtKB P03372", "> 30 µM"],
  ["O=C1Nc2ccc(Cl)cc2[C@@](C#CC2CC2)(C(F)(F)F)O1", "UniProtKB P03372", "> 30 µM"],
  ["Cc1ccc(S(=O)(=O)NC(=O)NN2CC3CCCC3C2)cc1 (stereo unspecified) [GLICLAZIDE]", "UniProtKB P03372", "> 10 µM"],
  ["CN(C)CCC=C1c2ccccc2C=Cc2ccccc21", "UniProtKB P03372", "> 30 µM"],
  ["O=C(O)C[C@H](O)C[C@H](O)/C=C/c1c(C2CC2)nc2ccccc2c1-c1ccc(F)cc1", "UniProtKB P03372", "> 10 µM"],
  ["CC[C@@H]1C(=O)OC[C@@H]1Cc1cncn1C", "UniProtKB P03372", "> 30 µM"],
  ["COc1cc2nc(N(C)CCCNC(=O)C3CCCO3)nc(N)c2cc1OC (stereo unspecified)", "UniProtKB P03372", "> 30 µM"],
  ["C[C@H](N)[C@H](O)c1cccc(O)c1", "UniProtKB P03372", "> 10 µM"],
  ["C[C@H](CSC(=O)c1ccccc1)C(=O)N1C[C@@H](Sc2ccccc2)C[C@H]1C(=O)O", "UniProtKB P03372", "> 10 µM"],
  ["CCCN1C[C@H](CSC)C[C@@H]2c3cccc4[nH]cc(c34)C[C@H]21 [PERGOLIDE]", "UniProtKB P03372", "> 30 µM"],
  ["CCCC(C)C1(CC)C(=O)NC(=O)NC1=O (stereo unspecified)", "UniProtKB P03372", "> 10 µM"],
  ["CC1=C(C(=O)O)N2C(=O)[C@@H](NC(=O)[C@H](N)c3ccccc3)[C@H]2SC1 [CEPHALEXIN ANHYDROUS]", "UniProtKB P03372", "> 30 µM"],
  ["COc1ccc(CCNCC(O)COc2cccc(C)c2)cc1OC (stereo unspecified)", "UniProtKB P03372", "> 10 µM"],
  ["Nc1nc(/C(=C/CC(=O)O)C(=O)N[C@@H]2C(=O)N3C(C(=O)O)=CCS[C@H]23)cs1", "UniProtKB P03372", "> 30 µM"],
  ["Cc1ccc(-n2nccn2)c(C(=O)N2CCN(c3nc4cc(Cl)ccc4o3)CC[C@H]2C)c1", "UniProtKB P03372", "> 30 µM"],
  ["CN1C(=O)C(O)N=C(c2ccccc2)c2cc(Cl)ccc21 (stereo unspecified)", "UniProtKB P03372", "> 30 µM"],
  ["CN(C)/N=N/c1[nH]cnc1C(N)=O", "UniProtKB P03372", "> 10 µM"],
  ["Cc1cn([C@H]2C[C@H](N=[N+]=[N-])[C@@H](CO)O2)c(=O)[nH]c1=O", "UniProtKB P03372", "> 30 µM"],
  ["CC(=O)O[C@H]1C[C@@H]2CC[C@@H]3[C@H](CC[C@@]4(C)[C@H]3C[C@H]([N+]3(C)CCCCC3)[C@@H]4OC(C)=O)[C@@]2(C)C[C@@H]1N1CCCCC1", "UniProtKB P03372", "> 30 µM"],
  ["COc1ccccc1N1CCN(CCCNc2cc(=O)n(C)c(=O)n2C)CC1", "UniProtKB P03372", "> 30 µM"],
  ["Cc1c(C(=O)NN2CCCCC2)nn(-c2ccc(Cl)cc2Cl)c1-c1ccc(Cl)cc1", "UniProtKB P03372", "> 30 µM"],
  ["CC(C)=CCC/C(C)=C/C=C/C(C)=C/C=C/C(C)=C/C=C/C=C(C)/C=C/C=C(C)/C=C/C=C(\\C)CCC=C(C)C", "UniProtKB P03372", "> 10 µM"],
  ["CCOc1ccccc1OCC1CNCCO1 (stereo unspecified)", "UniProtKB P03372", "> 30 µM"],
  ["CCC(C)n1ncn(-c2ccc(N3CCN(c4ccc(OCC5COC(Cn6cncn6)(c6ccc(Cl)cc6Cl)O5)cc4)CC3)cc2)c1=O (stereo unspecified)", "UniProtKB P03372", "> 30 µM"],
  ["O=C(O)[C@H](CC(=O)N1C[C@H]2CCCC[C@H]2C1)Cc1ccccc1 [MITIGLINIDE]", "UniProtKB P03372", "> 10 µM"]
]}
